This collection of values is drawn from patent US20240336574A1.

# study_target: recombinant human NaV1.8 stably transfected HEK cells (Homo sapiens, UniProt Q9Y5Y9)
# Construct: expressed in transfected cells; host or cells: HEK cells, stably transfected
# Sequence (Q9Y5Y9 whole entry): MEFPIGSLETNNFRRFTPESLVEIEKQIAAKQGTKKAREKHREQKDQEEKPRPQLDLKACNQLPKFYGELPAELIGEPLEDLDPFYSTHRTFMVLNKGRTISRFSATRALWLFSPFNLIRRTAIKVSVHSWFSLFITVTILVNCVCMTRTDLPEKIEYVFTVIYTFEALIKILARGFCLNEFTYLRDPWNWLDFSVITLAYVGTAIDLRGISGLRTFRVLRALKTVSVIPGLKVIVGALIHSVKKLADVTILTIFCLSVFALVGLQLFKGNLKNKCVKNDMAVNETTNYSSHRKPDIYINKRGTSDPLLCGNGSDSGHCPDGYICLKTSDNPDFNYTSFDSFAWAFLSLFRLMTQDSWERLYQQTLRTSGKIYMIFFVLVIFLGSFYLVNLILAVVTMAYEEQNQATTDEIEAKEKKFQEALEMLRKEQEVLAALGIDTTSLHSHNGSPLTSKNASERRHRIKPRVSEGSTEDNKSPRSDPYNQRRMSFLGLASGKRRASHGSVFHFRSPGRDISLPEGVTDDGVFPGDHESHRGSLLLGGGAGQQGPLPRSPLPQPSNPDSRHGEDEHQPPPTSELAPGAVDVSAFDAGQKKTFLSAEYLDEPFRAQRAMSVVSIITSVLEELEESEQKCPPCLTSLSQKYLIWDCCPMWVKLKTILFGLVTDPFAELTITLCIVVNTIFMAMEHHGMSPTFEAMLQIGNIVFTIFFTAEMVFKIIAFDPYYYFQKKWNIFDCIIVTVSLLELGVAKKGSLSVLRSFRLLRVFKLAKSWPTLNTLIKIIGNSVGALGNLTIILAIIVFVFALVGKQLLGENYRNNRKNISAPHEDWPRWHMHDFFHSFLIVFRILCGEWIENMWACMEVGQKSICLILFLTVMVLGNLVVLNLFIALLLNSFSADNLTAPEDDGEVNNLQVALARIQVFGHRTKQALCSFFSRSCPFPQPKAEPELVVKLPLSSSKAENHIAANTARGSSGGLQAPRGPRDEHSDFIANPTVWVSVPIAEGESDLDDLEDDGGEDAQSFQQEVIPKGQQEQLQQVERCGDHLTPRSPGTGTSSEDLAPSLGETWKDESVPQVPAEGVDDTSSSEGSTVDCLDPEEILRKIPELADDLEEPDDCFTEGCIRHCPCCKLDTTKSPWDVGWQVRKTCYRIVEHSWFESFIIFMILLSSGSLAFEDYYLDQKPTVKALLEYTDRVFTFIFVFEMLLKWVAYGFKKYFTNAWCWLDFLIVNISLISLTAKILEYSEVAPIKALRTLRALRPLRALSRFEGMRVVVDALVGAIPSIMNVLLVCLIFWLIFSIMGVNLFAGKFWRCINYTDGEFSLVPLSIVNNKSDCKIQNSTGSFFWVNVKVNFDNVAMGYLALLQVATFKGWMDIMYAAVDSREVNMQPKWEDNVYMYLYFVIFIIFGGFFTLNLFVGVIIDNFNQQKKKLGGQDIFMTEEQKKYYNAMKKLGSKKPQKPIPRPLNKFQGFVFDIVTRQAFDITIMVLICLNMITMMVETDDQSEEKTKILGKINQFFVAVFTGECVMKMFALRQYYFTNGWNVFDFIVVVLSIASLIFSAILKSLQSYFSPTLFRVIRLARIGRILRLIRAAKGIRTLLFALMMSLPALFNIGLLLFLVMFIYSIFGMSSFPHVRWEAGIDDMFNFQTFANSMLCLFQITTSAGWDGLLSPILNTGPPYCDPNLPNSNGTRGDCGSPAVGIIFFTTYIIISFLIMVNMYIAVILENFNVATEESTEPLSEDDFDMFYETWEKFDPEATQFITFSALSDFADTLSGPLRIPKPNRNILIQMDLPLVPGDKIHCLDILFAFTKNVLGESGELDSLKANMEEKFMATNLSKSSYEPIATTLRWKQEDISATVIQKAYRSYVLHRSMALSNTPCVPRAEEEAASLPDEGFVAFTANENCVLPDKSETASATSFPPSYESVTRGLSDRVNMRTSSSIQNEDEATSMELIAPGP
# protocol: Compound profiling on NaV1.8, human NaV1.8 cell line, SyncroPatch384PE automated patch clamp assay (Example 115, third set of compounds, Table 27)
# Type: cell-based
# run_conditions: resting state block (P1 measurement), human NaV1.8 HEK cells, Table 27 (third set of compounds), read-out: P1 IC50
parameter_measured: IC50

I have this molecule here, Cc1cc(F)ccc1Oc1nnc(C(F)(F)F)cc1C(=O)Nc1ccc(C)c(S(C)(=O)=O)c1 , and I need its recorded IC50.
201 to 500 nM

I have this molecule here, CSc1cccc(NC(=O)c2cc(C(F)(F)F)nnc2Oc2cc(F)ccc2Cl)c1 , and I need its recorded IC50.
> 5000 nM

I have this molecule here, NS(=O)(=O)c1cccc(NC(=O)c2cc(C(F)(F)F)nnc2Oc2ccc(F)cc2O)c1 , and I need its recorded IC50.
201 to 500 nM

* * *

# study_target: recombinant human NaV1.8 stably transfected HEK cells (Homo sapiens, UniProt Q9Y5Y9)
# Construct: expressed in transfected cells; host or cells: HEK cells, stably transfected
# protocol: Compound profiling on NaV1.8, human NaV1.8 cell line, SyncroPatch384PE automated patch clamp assay (Example 115, third set of compounds, Table 27)
# Assay type: cell-based
# run_conditions: resting state block (P1 measurement), human NaV1.8 HEK cells, Table 27 (third set of compounds), read-out: P1 IC50
Some compounds, each annotated with its measured IC50.

Use these answered entries as a reference point.
- compound: "Cc1cc(C#N)ccc1Oc1nnc(C(F)(F)F)cc1C(=O)Nc1cccc(S(C)(=O)=O)c1 [Compound 78]"
  study_target: "recombinant human NaV1.8 stably transfected HEK cells (Homo sapiens, UniProt Q9Y5Y9)"
  IC50: "> 5 µM"
- compound: "CCOc1cc(F)ccc1Oc1nnc(C)cc1C(=O)Nc1cccc(S(C)(=O)=O)c1 [Compound 108]"
  study_target: "recombinant human NaV1.8 stably transfected HEK cells (Homo sapiens, UniProt Q9Y5Y9)"
  IC50: "> 5 µM"
- compound: "COc1cc(F)ccc1Oc1nnc(C(F)(F)F)cc1C(=O)Nc1cccc(-n2ncnc2C)c1 [Compound 36]"
  study_target: "recombinant human NaV1.8 stably transfected HEK cells (Homo sapiens, UniProt Q9Y5Y9)"
  IC50: "0.201 to 0.5 µM"

API: the following record is the query input.
I have this compound here, COc1cc(F)ccc1Oc1nnc(C(F)(F)F)cc1C(=O)Nc1cccc(CS(C)(=O)=O)c1 [Compound 19] , and I need its recorded IC50.
1 to 5 µM

* * *

# study_target: recombinant human NaV1.8 stably transfected HEK cells (Homo sapiens)
# Construct: expressed in transfected cells; host or cells: HEK cells, stably transfected
# protocol: Compound profiling on NaV1.8, human NaV1.8 cell line, SyncroPatch384PE automated patch clamp assay (Example 115, third set of compounds, Table 27)
# Type: cell-based
# run_conditions: resting state block (P1 measurement), human NaV1.8 HEK cells, Table 27 (third set of compounds), read-out: P1 IC50
Some compounds, each annotated with its measured IC50.

- mol_smiles: "Cc1cc(C2CC2)ccc1Oc1nnc(C(F)(F)F)cc1C(=O)Nc1cccc(S(C)(=O)=O)c1"
  value_measured: "≤ 200 nM"
- mol_smiles: "COc1cc(C#N)ccc1Oc1nnc(C(F)(F)F)cc1C(=O)Nc1cccc(C(N)=O)c1"
  value_measured: "≤ 200 nM"

API: the following record is the query input.
Any idea what IC50 came out for COc1ccc(Oc2nnc(C(F)(F)F)cc2C(=O)Nc2cccc(S(C)(=O)=O)c2)c(C)c1 on recombinant human NaV1.8 stably transfected HEK cells (Homo sapiens)?
≤ 200 nM
